// provenance: patent US20200024337A1

The entries below are paired with their reported KD improvement.
Target: alpha-synuclein (human, UniProt P37840 1-140)
Assay: SPR (Biacore 3000), synuclein ligand format

Input 2E6-HLD-3 (antibody, V domains shown, Humanized 2E6; also called h2E6-HLD-3; H2E6-HLD-3) VH: QVQLVQSGAEVKKPGASVKVSCKASGYTFTSYWMHWMRQAPGQGLEWIGRIDPNSGTTKYNVNFKTRVTLTVDKSTSTAYMELSSLRSEDTAVYYCARLGHYGNLYAMDYWGQGTLVT VL: EIVLTQSPATLSLSPGERATLSCSASSSVSYMHWYQQKPGQAPRRWIYDTSKLASGVPARFSGSGSGTDYTLTISSLEPEDFAVYYCQQWSSNPPTFGQGTKLEIKR . Output KD improvement: 1 fold (Ch2E6 = 1)

Just so you know, measured KD improvement for chimeric 2E6 (antibody, V domains shown, also called ch2E6; Ch2E6) VH: QVQLQQPGAELVKPGASVKLSCTASGYTFTSYWMHWMKQRPGRGLEWIGRIDPNSGTTKYNVNFKTKATLTVDKPSSTAYMHLSSLTSEDSAVYYCARLGHYGNLYAMDYWGQGTSVT VL: QIVLTQSPAIMSASPGEKVTMTCSASSSVSYMHWYQQKSGTSPKRWIYDTSKLASGVPTRFSGSGSGTSYSLTISSMDTEDAATYYCQQWSSNPPTFGAGTKLELK came out at 1 fold (Ch2E6 = 1)

Measured KD improvement of 2E6-HLD-2 (antibody, V domains shown, Humanized 2E6; also called h2E6-HLD-2; H2E6-HLD-2) VH: QVQLVQSGAEVKKPGASVKVSCKASGYTFTSYWMHWVRQAPGQGLEWIGRIDPNSGTTKYNVNFKTRATLTVDKSTSTAYMELSSLRSEDTAVYYCARLGHYGNLYAMDYWGQGTLVT VL: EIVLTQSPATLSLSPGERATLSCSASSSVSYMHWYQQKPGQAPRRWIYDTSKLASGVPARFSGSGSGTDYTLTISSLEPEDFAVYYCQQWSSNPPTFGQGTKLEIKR : 1 fold (Ch2E6 = 1)

Quick note, KD improvement for 2E6-HLD-1 (antibody, V domains shown, Humanized 2E6; also called h2E6-HLD-1; H2E6-HLD-1) VH: QVQLVQSGAEVKKPGASVKVSCKASGYTFTSYWMHWMRQAPGQGLEWIGRIDPNSGTTKYNVNFKTRATLTVDKSTSTAYMELSSLRSEDTAVYYCARLGHYGNLYAMDYWGQGTLVT VL: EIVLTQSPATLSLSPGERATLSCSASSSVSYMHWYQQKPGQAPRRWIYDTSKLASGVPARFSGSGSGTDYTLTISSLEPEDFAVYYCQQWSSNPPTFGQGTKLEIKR landed at 2 fold (Ch2E6 = 1)
